src = patent US20120253017A1

Entries and their measured Kd follow.
Molecular target: T1, mouse ventricular myosin light chain 1, GlySer(His)6 tag (mouse, UniProt P09542 1-204)
T1 construct: also called mouse vMLC-1
T1 sequence (P09542 other isoform, or with tags, fused parts or gaps): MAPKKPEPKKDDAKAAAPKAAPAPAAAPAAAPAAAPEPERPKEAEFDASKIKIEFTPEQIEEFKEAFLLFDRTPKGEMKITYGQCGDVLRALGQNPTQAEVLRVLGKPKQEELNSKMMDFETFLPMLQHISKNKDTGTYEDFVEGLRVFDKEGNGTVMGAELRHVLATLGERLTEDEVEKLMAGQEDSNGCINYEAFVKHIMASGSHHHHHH
Assay: BIAcore, vMLC-1 immobilised
Method: Affinity of all 8 humanised mAbs was determined by BIAcore as described above.
Express it in nM; write the number only.

Query: Name the reported Kd value associated with the binder humanised 39-15 mAb 4-1:1-3 (antibody, human IgG1, kappa, V domains shown, human IgG1 kappa) VH: QVQLVQSGAEVKKPGASVKVSCKASGYTFTTYWIHWVRQAPGQRLEWMGAIYPGDGDTRYTQNFKDRVTITRDTSASTAYMELSSLRSEDMAVYYCAREGTPPFTTATFAMAYWGQGTLVTVSS VL: DIVMTQSPDSLAVSLGERATINCKSSQSLLYSRTRKNYLAWYQQKPGQPPKLLIYWASTRQSGVPDRFSGSGSGTDFTLTISSLQAEDVAVYYCKQSYNLFTFGQGTKLEIKR
Result: 0.0396

Query: Requested field: Kd. Item: humanised 39-15 mAb 4-1:1-46 (antibody, human IgG1, V domains shown, human IgG1 kappa) VH: QVQLVQSGAEVKKPGASVKVSCKASGYTFTTYWIHWVRQAPGQGLEWMGAIYPGDGDTRYTQNFKDRVTMTRDTSTSTVYMELSSLRSEDTAVYYCAREGTPPFTTATFAMAYWGQGTLVTVSS VL: DIVMTQSPDSLAVSLGERATINCKSSQSLLYSRTRKNYLAWYQQKPGQPPKLLIYWASTRQSGVPDRFSGSGSGTDFTLTISSLQAEDVAVYYCKQSYNLFTFGQGTKLEIKR
Result: 0.0426

Query: So what does the record say about Kd for humanised 39-15 mAb 4-1:5-51 (antibody, human IgG1, kappa, V domains shown, human IgG1 kappa) VH: EVQLVQSGAEVKKPGESLKISCKGSGYSFTTYWIHWVRQMPGKGLEWMGAIYPGDGDTRYTQNFKDQVTISADKSISTAYLQWSSLKASDTAMYYCAREGTPPFTTATFAMAYWGQGTLVTVSS VL: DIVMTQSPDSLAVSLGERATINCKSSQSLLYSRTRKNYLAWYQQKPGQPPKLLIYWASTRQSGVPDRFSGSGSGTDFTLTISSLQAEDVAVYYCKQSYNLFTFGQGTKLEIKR ?
Result: 0.0153

Query: Look up Kd: humanised 39-15 mAb 4-1:1-8 (antibody, V domains shown) VH: QVQLVQSGAEVKKPGASVKVSCKASGYTFTTYWIHWVRQATGQGLEWMGAIYPGDGDTRYTQNFKDRVTMTRNTSISTAYMELSSLRSEDTAVYYCAREGTPPFTTATFAMAYWGQGTLVTVSS VL: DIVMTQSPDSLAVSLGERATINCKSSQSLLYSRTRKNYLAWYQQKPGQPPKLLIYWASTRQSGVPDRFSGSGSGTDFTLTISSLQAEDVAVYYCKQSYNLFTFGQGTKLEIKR
Result: 0.0589
